# ASSAY_REMARKS: Blood concentrations after subcutaneous dosing in rat PK/PD studies
# Assay type: in vivo
# CONDITION_PARAMETERS: rat, blood, subcutaneous, 20 mg/kg, 20 mg/kg SC, 14-day study, 0.5 h; read-out: blood concentration, individual rat
MEASURED_ENDPOINT: concentration at 0.5 h (ng/mL)
Number only, in ng/mL; omit the unit.

Data request: // fetch concentration at 0.5 h given entry CN[C@@H](C)C(=O)N[C@H](C(=O)N1CCC[C@H]1c1nc(C(=O)c2ccc(F)cc2)cs1)C1CCN(C(=O)c2cnc(N3CCN(CCOc4cc5ncnc(Nc6n[nH]c(C)c6C)c5cc4S(=O)(=O)C(C)(C)C)CC3)nc2)CC1
Data returned: 126

----------
# ASSAY_REMARKS: Rat intravenous PK
# Assay type: in vivo
# CONDITION_PARAMETERS: male, Sprague Dawley (PROTAC 4), Han Wistar (PROTAC 6), whole blood, IV bolus (4: 2 mg/kg; 6: 1 mg/kg)
MEASURED_ENDPOINT: clearance (mL/min/kg)
Kindly provide the numeric value in mL/min/kg only, without the unit symbol.

Data request: Answer with the recorded clearance of CN[C@@H](C)C(=O)N[C@H](C(=O)N1CCC[C@H]1c1nc(C(=O)c2ccc(F)cc2)cs1)C1CCN(C(=O)c2cnc(N3CCN(CCOc4cc5ncnc(Nc6n[nH]c(C)c6C)c5cc4S(=O)(=O)C(C)(C)C)CC3)nc2)CC1 only.
Data returned: 18

----------
# ASSAY_REMARKS: Blood concentrations after subcutaneous dosing in rat PK/PD studies
# Type: in vivo
# CONDITION_PARAMETERS: rat, blood, subcutaneous, 20 mg/kg, 20 mg/kg SC, 14-day study, 240 h; read-out: blood concentration, individual rat
MEASURED_ENDPOINT: concentration at 240 h (ng/mL)
Numeric only. Scale: ng/mL

Data request: Look up and report measured concentration at 240 h for this entry: CN[C@@H](C)C(=O)N[C@H](C(=O)N1CCC[C@H]1c1nc(C(=O)c2ccc(F)cc2)cs1)C1CCN(C(=O)c2cnc(N3CCN(CCOc4cc5ncnc(Nc6n[nH]c(C)c6C)c5cc4S(=O)(=O)C(C)(C)C)CC3)nc2)CC1
Data returned: 1.68

----------
# ASSAY_REMARKS: Rat intravenous PK
# Assay type: in vivo
# CONDITION_PARAMETERS: male, Sprague Dawley (PROTAC 4), Han Wistar (PROTAC 6), whole blood, IV bolus (4: 2 mg/kg; 6: 1 mg/kg), read-out: Rat T½ (converted)
MEASURED_ENDPOINT: half-life (min)
Please give a number only; it is taken to be in min.

Data request: Give half-life for the following molecule: CN[C@@H](C)C(=O)N[C@H](C(=O)N1CCC[C@H]1c1nc(C(=O)c2ccc(F)cc2)cs1)C1CCN(C(=O)c2cnc(N3CCN(CCOc4cc5ncnc(Nc6n[nH]c(C)c6C)c5cc4S(=O)(=O)C(C)(C)C)CC3)nc2)CC1 [PROTAC 4]
Data returned: 414

----------
# ASSAY_REMARKS: Blood concentrations after subcutaneous dosing in rat PK/PD studies
# Format: in vivo
# CONDITION_PARAMETERS: rat, blood, subcutaneous, 20 mg/kg, 20 mg/kg SC, 14-day study, […]; read-out: blood concentration, individual rat
MEASURED_ENDPOINT: concentration at […]

Data request: State its concentration at […]: CN[C@@H](C)C(=O)N[C@H](C(=O)N1CCC[C@H]1c1nc(C(=O)c2ccc(F)cc2)cs1)C1CCN(C(=O)c2cnc(N3CCN(CCOc4cc5ncnc(Nc6n[nH]c(C)c6C)c5cc4S(=O)(=O)C(C)(C)C)CC3)nc2)CC1
Data returned: 1.71 ng/mL

----------
# ASSAY_REMARKS: Blood concentrations after subcutaneous dosing in rat PK/PD studies
# Assay type: in vivo
# CONDITION_PARAMETERS: rat, blood, subcutaneous, 20 mg/kg, 20 mg/kg SC single dose, 7-day study, 1 h; read-out: PK, blood concentration, individual rat
MEASURED_ENDPOINT: concentration at 1 h (ng/mL)
Please reply with the bare figure in ng/mL and do not write the unit itself.

Data request: Specify reported concentration at 1 h for the molecule shown: CN[C@@H](C)C(=O)N[C@H](C(=O)N1CCC[C@H]1c1nc(C(=O)c2ccc(F)cc2)cs1)C1CCN(C(=O)c2cnc(N3CCN(CCOc4cc5ncnc(Nc6n[nH]c(C)c6C)c5cc4S(=O)(=O)C(C)(C)C)CC3)nc2)CC1
Data returned: 132

----------
# ASSAY_REMARKS: High-throughput precipitation solubility, chemiluminescent nitrogen-specific detection (CLND)
# Format: physicochemical
# CONDITION_PARAMETERS: high-throughput
MEASURED_ENDPOINT: solubility

Data request: Find the measured solubility of CN[C@@H](C)C(=O)N[C@H](C(=O)N1CCC[C@H]1c1nc(C(=O)c2ccc(F)cc2)cs1)C1CCN(C(=O)c2cnc(N3CCN(CCOc4cc5ncnc(Nc6n[nH]c(C)c6C)c5cc4S(=O)(=O)C(C)(C)C)CC3)nc2)CC1 and report it.
Data returned: > 311 µM

----------
# ASSAY_REMARKS: Blood concentrations after subcutaneous dosing in rat PK/PD studies
# Type: in vivo
# CONDITION_PARAMETERS: rat, blood, sc, 20 mg/kg, rat, single 20 mg/kg SC, after 7 days; read-out: compound levels in blood at later time-points
MEASURED_ENDPOINT: concentration at 7 days

Data request: Return concentration at 7 days for the following compound: CN[C@@H](C)C(=O)N[C@H](C(=O)N1CCC[C@H]1c1nc(C(=O)c2ccc(F)cc2)cs1)C1CCN(C(=O)c2cnc(N3CCN(CCOc4cc5ncnc(Nc6n[nH]c(C)c6C)c5cc4S(=O)(=O)C(C)(C)C)CC3)nc2)CC1
Data returned: < 10 ng/mL

----------
# ASSAY_REMARKS: Blood concentrations after subcutaneous dosing in rat PK/PD studies
# Assay type: in vivo
# CONDITION_PARAMETERS: rat, blood, subcutaneous, 20 mg/kg, 20 mg/kg SC, 14-day study, 2 h; read-out: blood concentration, individual rat
# Description: Female CD rats (7–8 weeks old on arrival, Charles River Ltd.) were placed into groups using a randomization schedule based on body weight prior to the study start. All animals were acclimatized for a minimum of one week prior to the experiment commencing. […] PROTAC 4 was dissolved in saline with the pH adjusted to 5.0 with sodium hydroxide (1 M).
MEASURED_ENDPOINT: concentration at 2 h
Number plus unit, in that order.

Data request: State its concentration at 2 h: CN[C@@H](C)C(=O)N[C@H](C(=O)N1CCC[C@H]1c1nc(C(=O)c2ccc(F)cc2)cs1)C1CCN(C(=O)c2cnc(N3CCN(CCOc4cc5ncnc(Nc6n[nH]c(C)c6C)c5cc4S(=O)(=O)C(C)(C)C)CC3)nc2)CC1
Data returned: 124 ng/mL

----------
# ASSAY_REMARKS: Blood concentrations after subcutaneous dosing in rat PK/PD studies
# Format: in vivo
# CONDITION_PARAMETERS: rat, whole blood, subcutaneous, 5 mg/kg, 5 mg/kg SC, 14-day study, 240 h; read-out: blood concentration, individual rat
MEASURED_ENDPOINT: concentration at 240 h (ng/mL)
Give your result in ng/mL as a bare value.

Data request: Please report concentration at 240 h for the following compound: CN[C@@H](C)C(=O)N[C@H](C(=O)N1CCC[C@H]1c1nc(C(=O)c2ccc(F)cc2)cs1)C1CCN(C(=O)c2cnc(N3CCN(CCOc4cc5ncnc(Nc6n[nH]c(C)c6C)c5cc4S(=O)(=O)C(C)(C)C)CC3)nc2)CC1 [PROTAC 4]
Data returned: 1.13

Numbers sourced from paper PMC7083851.
